# protocol-description: physchem
# Assay type: physicochemical
# condition-notes: organic solvent or mixture, solubility in 1:1 hexanes:ethyl acetate
endpoint: solubility (mg/mL)

molecule="CC(C)(C)[Si](C)(C)OCc1nc2cc3c(cc2c(=O)[nH]1)C(=O)CC3 [compound 7]" endpoint=solubility measurement_units=mg/mL experimental_result=15

---

# protocol-description: physchem
# Assay type: physicochemical
# condition-notes: organic solvent or mixture, solubility in ethyl acetate
endpoint: solubility

smiles_code=CC(C)(C)[Si](C)(C)OCc1nc2cc3c(cc2c(=O)[nH]1)C(=O)CC3 endpoint=solubility experimental_result="~25 mg/mL"

Reference for the values: patent US8809526B2
